Attribution: patent US9062078B2

- Assayed Target: human orexin 2 receptor (Homo sapiens (Human), UniProt O43614)
- Sequence (O43614 whole entry): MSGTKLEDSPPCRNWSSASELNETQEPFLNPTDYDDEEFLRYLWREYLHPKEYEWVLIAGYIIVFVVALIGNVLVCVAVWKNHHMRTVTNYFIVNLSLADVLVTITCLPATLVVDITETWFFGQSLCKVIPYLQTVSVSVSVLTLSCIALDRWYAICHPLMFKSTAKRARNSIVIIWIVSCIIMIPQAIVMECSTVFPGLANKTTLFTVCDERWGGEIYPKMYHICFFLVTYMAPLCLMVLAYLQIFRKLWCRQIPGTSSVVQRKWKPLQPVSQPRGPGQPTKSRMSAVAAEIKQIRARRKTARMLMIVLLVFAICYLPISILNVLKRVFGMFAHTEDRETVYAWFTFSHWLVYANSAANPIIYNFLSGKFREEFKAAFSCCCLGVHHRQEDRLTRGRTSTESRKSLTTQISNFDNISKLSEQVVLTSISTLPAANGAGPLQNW
- Protocol Details: Human orexin 2 receptor radioligand binding (competitive, [3H]-EMPA, HEK293 cell preparations)
- Condition Label: human orexin 2 receptor, [3H]-EMPA competition binding; read-out: hOX2 Ki (nm)
Readout Type: log10(Ki) (log10 of the value in nM)

{"columns": ["Molecule", "log10(Ki)"],
 "data": [
  ["Cc1ccc(-c2ncco2)c(C(=O)N2C3CCC2C(COc2ccc(F)cn2)C3)n1 (racemic)", 2.53],
  ["Cc1ccc(-n2nccn2)c(C(=O)N2C3CCC2C(COc2ncccc2C)C3)n1 (racemic) [Example 176]", 2.31],
  ["Cc1ccc(-n2nccn2)c(C(=O)N2C3CCC2C(COc2nc(C)cc(C)n2)C3)c1 (racemic)", 1.43],
  ["COc1cccc(-n2nccn2)c1C(=O)N1[C@@H]2CC[C@H]1[C@H](Nc1cnc(C(F)(F)F)cn1)C2", 2.38],
  ["O=C(c1c(O)ccc2cccnc12)N1C2CCC1C(COc1ccccn1)C2 (racemic)", 2.90],
  ["Cc1ccc(-c2ncccn2)c(C(=O)N2C3CCC2C(COc2ccc(F)cn2)C3)c1 (racemic)", 1.59],
  ["O=C(c1cc(CO)ccc1-n1nccn1)N1C2CCC1C(COc1ccc(F)cn1)C2 (racemic)", 2.36],
  ["COc1c(F)cccc1C(=O)N1C2CCC1C(Nc1cnc3ccccc3n1)C2 (single isomer, unassigned) [Example 206]", 3.18],
  ["Cc1ccc(-n2nccn2)c(C(=O)N2C3CCC2C(COc2ncccc2C(F)(F)F)C3)c1 (racemic)", 2.08],
  ["Cc1cnc(C(=O)N2C3CCC2C(Nc2cnc(C(F)(F)F)cn2)C3)c(-n2ccnn2)c1 (racemic)", 3.43],
  ["O=C(c1c(F)cccc1-c1ncccn1)N1C2CCC1C(COc1ccc(F)cn1)C2 (racemic)", 2.09],
  ["Cc1cccc(-c2ncccn2)c1C(=O)N1C2CCC1C(COc1ccc(F)cn1)C2 (racemic)", 2.46],
  ["CCOc1ncc2ccccc2c1C(=O)N1[C@@H]2CC[C@H]1[C@H](Nc1cnc(C(F)(F)F)cn1)C2", 3.01],
  ["Cc1ccc(C(=O)N2C3CCC2C(Nc2ccc(C(F)(F)F)cn2)C3)c(-n2ccnn2)n1 (racemic)", 3.08],
  ["O=C(c1ccc(F)cc1-n1nccn1)N1[C@@H]2CC[C@H]1[C@H](Nc1cnc(C(F)(F)F)cn1)C2", 3.51],
  ["O=C(c1c(F)cccc1-n1nccn1)N1[C@@H]2CC[C@H]1[C@H](Nc1cnc(C(F)(F)F)cn1)C2", 2.84],
  ["Cc1cc(-c2ccc(C)nc2C(=O)N2C3CCC2C(COc2ccccn2)C3)on1 (racemic)", 3.32],
  ["CCOc1ccc(C)nc1C(=O)N1C2CCC1C(Nc1ccc(C(F)(F)F)cn1)C2 (racemic)", 2.90],
  ["Cc1cccc(C(=O)N2[C@@H]3CC[C@H]2[C@H](Nc2ncc(C(F)(F)F)cn2)C3)c1I", 3.40],
  ["Cc1ccc(-c2ncco2)c(C(=O)N2C3CCC2C(COc2ncc(F)cn2)C3)n1 (racemic)", 3.26],
  ["Cc1ccc(-n2nccn2)c(C(=O)N2C3CCC2C(COc2nc4ccccc4nc2C(F)(F)F)C3)c1 (racemic)", 2.69],
  ["Cc1cccc(C(=O)N2[C@@H]3CC[C@H]2[C@H](Nc2ncc(C(F)(F)F)cn2)C3)c1-c1ncco1", 2.62],
  ["O=C(c1ccccc1-n1cccn1)N1C2CCC1C(COc1ccc(F)cn1)C2 (racemic)", 2.60],
  ["Cc1ccc(-n2nccn2)c(C(=O)N2C3CCC2C(COc2ccc(C(F)(F)F)cn2)C3)n1 (racemic)", 2.62],
  ["O=C(c1ccc(F)cc1-c1ncccn1)N1[C@@H]2CC[C@H]1[C@H](Nc1ccc(C(F)(F)F)cn1)C2", 3.11],
  ["Cc1cccc(C(=O)N2[C@@H]3CC[C@H]2[C@H](Nc2ccc(C(F)(F)F)cn2)C3)c1-c1ncco1", 2.06],
  ["Cc1ccc(-n2nccn2)c(C(=O)N2C3CCC2C(COc2cccnc2)C3)n1 (racemic)", 3.38],
  ["CCOc1ccc2ccccc2c1C(=O)N1C2CCC1C(COc1ccc(F)cn1)C2 (racemic)", 1.04],
  ["Cc1ccc(C(=O)N2C3CCC2C(COc2cnc4ccccc4n2)C3)c(-n2ccnn2)n1 (racemic)", 3.51],
  ["O=C(c1c(F)cccc1-n1nccn1)N1C2CCC1C(COc1cnc3ccccc3n1)C2 (racemic)", 2.84]
]}
